Target: Human C5 (Homo sapiens)
Construct: purchased Complement Technology
Sequence (P01031 19-1676): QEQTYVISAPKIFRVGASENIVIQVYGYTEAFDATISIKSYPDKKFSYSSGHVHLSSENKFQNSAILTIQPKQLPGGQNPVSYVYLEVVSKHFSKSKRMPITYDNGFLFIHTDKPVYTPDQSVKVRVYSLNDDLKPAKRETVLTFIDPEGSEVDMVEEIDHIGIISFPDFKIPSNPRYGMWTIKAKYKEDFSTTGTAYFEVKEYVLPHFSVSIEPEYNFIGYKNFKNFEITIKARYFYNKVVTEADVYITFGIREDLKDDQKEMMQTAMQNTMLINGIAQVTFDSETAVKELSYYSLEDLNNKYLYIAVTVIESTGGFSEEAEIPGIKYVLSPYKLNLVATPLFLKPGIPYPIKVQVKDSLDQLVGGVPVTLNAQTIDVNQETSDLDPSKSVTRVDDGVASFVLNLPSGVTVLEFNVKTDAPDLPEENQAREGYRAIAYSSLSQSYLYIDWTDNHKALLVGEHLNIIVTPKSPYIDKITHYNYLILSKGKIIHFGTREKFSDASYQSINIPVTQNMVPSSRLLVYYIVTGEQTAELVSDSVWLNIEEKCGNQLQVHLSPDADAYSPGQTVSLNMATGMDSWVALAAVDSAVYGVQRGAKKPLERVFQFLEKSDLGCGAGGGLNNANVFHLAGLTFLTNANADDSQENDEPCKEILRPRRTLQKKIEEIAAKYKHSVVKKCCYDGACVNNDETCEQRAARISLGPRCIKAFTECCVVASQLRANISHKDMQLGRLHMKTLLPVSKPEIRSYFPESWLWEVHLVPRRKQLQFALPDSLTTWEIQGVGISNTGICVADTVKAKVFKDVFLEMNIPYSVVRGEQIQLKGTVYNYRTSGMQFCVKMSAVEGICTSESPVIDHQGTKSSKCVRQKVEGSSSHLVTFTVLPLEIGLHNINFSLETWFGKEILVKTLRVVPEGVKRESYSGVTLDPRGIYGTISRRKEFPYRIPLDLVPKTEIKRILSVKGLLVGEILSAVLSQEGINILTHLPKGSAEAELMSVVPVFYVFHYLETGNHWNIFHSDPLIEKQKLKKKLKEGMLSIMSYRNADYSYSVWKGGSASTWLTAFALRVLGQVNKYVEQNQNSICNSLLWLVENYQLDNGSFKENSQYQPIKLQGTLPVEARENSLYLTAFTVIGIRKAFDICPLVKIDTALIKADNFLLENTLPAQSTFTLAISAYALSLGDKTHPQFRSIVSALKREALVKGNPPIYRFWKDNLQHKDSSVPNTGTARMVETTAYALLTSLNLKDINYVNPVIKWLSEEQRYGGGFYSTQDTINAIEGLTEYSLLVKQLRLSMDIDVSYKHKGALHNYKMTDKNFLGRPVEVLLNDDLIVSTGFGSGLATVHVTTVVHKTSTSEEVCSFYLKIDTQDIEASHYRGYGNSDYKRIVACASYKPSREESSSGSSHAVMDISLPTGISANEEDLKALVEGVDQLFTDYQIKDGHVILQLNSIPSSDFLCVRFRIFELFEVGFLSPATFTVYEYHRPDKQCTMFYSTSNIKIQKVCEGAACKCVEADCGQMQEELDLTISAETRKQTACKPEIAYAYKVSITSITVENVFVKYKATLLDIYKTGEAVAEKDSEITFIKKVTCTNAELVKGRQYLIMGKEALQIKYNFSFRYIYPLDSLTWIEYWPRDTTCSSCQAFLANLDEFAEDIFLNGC
Assay: Red blood cell (RBC) hemolysis assay, luminescent (Example 13, Table 22); note: 1.5% C5-depleted human serum
Type: cell-based
Conditions: sheep EA cells, […] C5-depleted human serum, 0.5 nM human C5, 1 hour 37° C., luminescence
Recorded measurements of pIC50, one per entry
Note on units: pIC50 is unitless, being -log10 of a concentration expressed in mol/L.

CCCCCOc1cc(N2CCCN(Cc3ccc(CCOC(C)C)cc3OC)C2=O)ccc1OC ... 7.52
CCCCCOc1cc(N2CCCN(Cc3cccc4c3ccn4CC3(O)CCNCC3)C2=O)ccc1OC ... 7.84
CCCCCOc1cc(N2CCCN(Cc3ccc(CC(=O)N4CCCC4)cc3OC)C2=O)ccc1OC ... 7.71
CCCCCOc1cc(N2CCCN(Cc3ccnc4c3c(C)cn4CC(=O)N(C)C)C2=O)ccc1OC ... 8.12

Form field pIC50, entry CCCCCOc1cc(N2CCCN(Cc3cccc(C4=CCNCC4)c3F)C2=O)ccc1OC : 7.22

Source of measurements: patent US20230115176A1
